// data source = BindingDB's records for patent US20240109930

Quick record of pIC50 values for Galectin-3 (Homo sapiens, UniProt P17931).
In textbook form, pIC50 equals minus log to base ten of the concentration in mol/L.

compound: COC(=O)C(C)(C)n1cc(C[C@H]2OC(CO)=C(O)C(N3C[C@H](c4ccc(C)c(F)c4F)NN3)=C2OC)nn1 [US20240109930, Example 1.1.10.]
measValue: 7.22

Now look at this one.
Record request: pIC50 value, item CO[C@@H]1[C@@H](n2cc(-c3ccc(Cl)c(F)c3F)nn2)[C@@H](O)[C@@H](CO)O[C@@H]1Cn1cc([C@H]2C[C@@H](NC(=O)OC(C)(C)C)C2)nn1 [US20240109930, Example 2.2.86.]
7.22

---

Quick record of pIC50 values for Galectin-1 (Homo sapiens, UniProt P09382).
In textbook form, pIC50 equals minus log to base ten of the concentration in mol/L.

structureAsSmiles: COC(=O)C(C)(C)n1cc(C[C@H]2OC(CO)=C(O)C(N3C[C@H](c4ccc(C)c(F)c4F)NN3)=C2OC)nn1
measValue: 5.36

Now look at this one.
Record request: pIC50 value, item CO[C@@H]1[C@@H](n2cc(-c3ccc(Cl)c(F)c3F)nn2)[C@@H](O)[C@@H](CO)O[C@@H]1Cn1cc([C@H]2C[C@@H](NC(=O)OC(C)(C)C)C2)nn1
5.59
